ASSAY PROCEDURE: Drug degradation in PBS at pH 7.4 at 1000 uM after 24 hrs by HPLC method
Type: physicochemical
COND: read-out: Drug degradation
EXPERIMENTAL READOUT: degraded at 24 h, 1000 µM

Entry `CC1=CC(=O)c2c(O)cccc2C1=O` : reported degraded at 24 h, 1000 µM = ?
> 95%

---

ASSAY PROCEDURE: Chemical stability in PBS at pH 7.4 assessed as parent compound remaining at 1000 uM after 24 hrs by HPLC method
Format: physicochemical
COND: read-out: Stability
EXPERIMENTAL READOUT: remaining at 24 h, 1000 µM

State the recorded remaining at 24 h, 1000 µM for this entry: `CC1=C(CCC(=O)OCCOc2no[n+]([O-])c2S(=O)(=O)c2ccccc2)C(=O)c2c(O)cccc2C1=O`
> 98%
